- TARGET OR SYSTEM: CDK8/CycC (Homo sapiens)
- Construct: purchased Reaction Biology Corp. (Kinase HotSpot service)
- Sequence (P49336 whole entry): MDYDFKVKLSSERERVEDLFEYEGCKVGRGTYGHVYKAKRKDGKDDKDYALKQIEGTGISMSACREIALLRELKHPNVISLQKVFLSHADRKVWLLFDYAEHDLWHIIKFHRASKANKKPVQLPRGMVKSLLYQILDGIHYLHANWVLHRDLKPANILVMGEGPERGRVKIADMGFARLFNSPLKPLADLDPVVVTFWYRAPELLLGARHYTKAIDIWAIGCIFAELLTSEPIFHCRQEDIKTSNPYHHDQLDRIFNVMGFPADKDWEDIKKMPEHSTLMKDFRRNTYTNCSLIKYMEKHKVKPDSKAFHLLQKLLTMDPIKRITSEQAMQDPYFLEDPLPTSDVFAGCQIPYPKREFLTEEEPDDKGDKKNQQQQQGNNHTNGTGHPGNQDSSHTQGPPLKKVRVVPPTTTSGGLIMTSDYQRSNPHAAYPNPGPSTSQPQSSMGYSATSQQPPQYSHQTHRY
- Sequence (P24863 whole entry partner): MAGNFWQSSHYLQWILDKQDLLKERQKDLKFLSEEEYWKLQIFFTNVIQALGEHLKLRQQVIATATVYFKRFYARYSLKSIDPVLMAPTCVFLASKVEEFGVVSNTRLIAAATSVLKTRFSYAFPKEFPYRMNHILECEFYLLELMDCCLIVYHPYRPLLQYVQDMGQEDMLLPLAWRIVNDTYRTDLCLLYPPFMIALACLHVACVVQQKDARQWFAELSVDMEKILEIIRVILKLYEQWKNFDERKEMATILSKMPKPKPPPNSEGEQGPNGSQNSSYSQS
- ASSAY NAME: In vitro kinase inhibition assay (Reaction Biology HotSpot, 10 dose IC50 singlet)
- Type: biochemical
- RECORDED CONDITIONS: CDK8/CycC; 10 dose IC50 singlet assay; read-out: IC50
pIC50: −log10 of the molar value.
PROPERTY: pIC50

| COMPOUND STRING | TARGET OR SYSTEM | RESULT NUMBER |
| --- | --- | --- |
| CCOC(=O)c1cnc2ccc(Br)cc2c1Nc1cccc(S(N)(=O)=O)c1 | CDK8/CycC (Homo sapiens) | 5.40 |

1 = CCOC(=O)c1cnc2ccc(OC)cc2c1Nc1cccc(S(N)(=O)=O)c1
2 = CCOC(=O)c1cnc2ccc(Br)cc2c1Nc1cccc(S(=O)(=O)NC)c1
3 = CCOC(=O)c1cnc2ccc(OC)cc2c1Nc1cccc(NS(C)(=O)=O)c1
Q: Please list these compounds in decreasing order of pIC50. Enter labels, ranked according to the request.
Result: 2, 3, 1
(2: 6.19, 3: 5.85, 1: 5.27)

----------
- TARGET OR SYSTEM: CDK8/CycC (Homo sapiens)
- Construct: purchased Reaction Biology Corp. (Kinase HotSpot service)
- ASSAY NAME: In vitro kinase inhibition assay (Reaction Biology HotSpot, 10 dose IC50 singlet)
- Assay type: biochemical
- RECORDED CONDITIONS: CDK8/CycC; compound at 20 µM; read-out: % enzyme inhibition ± SD (20 µM)
PROPERTY: inhibition at 20 µM (%)

Would you please look over these solved cases?
| COMPOUND STRING | TARGET OR SYSTEM | inhibition at 20 µM, % |
| --- | --- | --- |
| CCOC(=O)c1cnc2cc(Cl)c(F)cc2c1Nc1cccc(S(N)(=O)=O)c1 | CDK8/CycC (Homo sapiens) | 37.9 |
| CCOC(=O)c1cnc2ccc(Br)cc2c1Nc1cccc(S(C)(=O)=O)c1 | CDK8/CycC (Homo sapiens) | 22.4 |
| CCOC(=O)c1cnc2cc(Cl)c(F)cc2c1Nc1cccc(S(C)(=O)=O)c1 | CDK8/CycC (Homo sapiens) | 32 |

A = CCOC(=O)c1cnc2ccc(OC)cc2c1Nc1cccc(NS(C)(=O)=O)c1
B = CCOC(=O)c1cnc2cc(Cl)c(F)cc2c1Nc1cccc(NS(C)(=O)=O)c1
C = CCOC(=O)c1cnc2ccc(OC)cc2c1Nc1cccc(S(C)(=O)=O)c1
Q: Write the entries in order, lowest recorded inhibition at 20 µM first. Return the labels ranked in the requested order, please.
Result: C, B, A
(C: 18.7%, B: 27.2%, A: 85.9%)

----------
- TARGET OR SYSTEM: CDK8/CycC (Homo sapiens)
- Construct: purchased Reaction Biology Corp. (Kinase HotSpot service)
- ASSAY NAME: In vitro kinase inhibition assay (Reaction Biology HotSpot, 10 dose IC50 singlet)
- Type: biochemical
- RECORDED CONDITIONS: CDK8/CycC; compound at 20 µM; read-out: % enzyme inhibition ± SD (20 µM)
PROPERTY: inhibition at 20 µM (%)

| COMPOUND | RESULT NUMBER |
| --- | --- |
| CCOC(=O)c1cnc2ccc(Br)cc2c1Nc1cccc(S(=O)(=O)NC)c1 [5d] | 88.6 |
| CCOC(=O)c1cnc2ccc(OC)cc2c1Nc1cccc(S(N)(=O)=O)c1 [5b] | 63.4 |
| CCOC(=O)c1cnc2ccc(Br)cc2c1Nc1cccc(S(N)(=O)=O)c1 [5a] | 83.9 |
